experiment: in vivo; conditions: mouse, ip
observation_type: LD50 (mg/kg)
Just the number please, in mg/kg, no unit attached.

The examples below pair each entry with its known result.
{"compound": "Cc1cc(C(O)CN2CCC(C)CC2)ccc1SC(C)C (stereo not shown) [compound 133]", "LD50 [mg/kg]": 110}
{"compound": "Cc1cc(C(O)CN2CCC(C)CC2)ccc1SCC(C)C (stereo not shown) [compound 85]", "LD50 [mg/kg]": 182}
{"compound": "CCCCCCSc1ccc(C(O)CN2CCOCC2)cc1C (stereo not shown) [compound 109]", "LD50 [mg/kg]": 600}
{"compound": "CCSc1ccc(C(O)CNC(C)Cc2ccccc2)cc1C (stereo not shown) [compound 83]", "LD50 [mg/kg]": 110}
{"compound": "CCCCCCCCNCC(O)c1ccc(SC(C)C)c(C)c1 (stereo not shown) [compound 131]", "LD50 [mg/kg]": 86}
{"compound": "CCCCSc1ccc(C(O)CN2CCCC(C)C2)cc1C (stereo not shown) [compound 95]", "LD50 [mg/kg]": 150}
{"compound": "CCCCSc1ccc(C(O)CN(C)C)cc1C (stereo not shown) [compound 94]", "LD50 [mg/kg]": 150}
{"compound": "CCCCSc1ccc(C(O)CN2CCCCC2)cc1C (stereo not shown) [compound 93]", "LD50 [mg/kg]": 182}
{"compound": "CCCCCCSc1ccc(C(O)CNC(C)(C)C)cc1C (stereo not shown) [compound 107]", "LD50 [mg/kg]": 110}

Query: Please look at this compound and report its LD50: CCCCCCSc1ccc(C(O)CNCCC)cc1C (stereo not shown) [compound 112]
Reply: 364

###

assay: in vivo; settings: mouse, ip
observation_type: LD50
Quick note: number first, unit second.

{"compound": "CCCCSc1ccc(C(O)CNC(C)(C)C)cc1C (stereo not drawn) [compound 90]", "LD50": "91 mg/kg"}
{"compound": "CCCCCCSc1ccc(C(O)CN2CCCCC2)cc1C (stereo not drawn) [compound 108]", "LD50": "182 mg/kg"}
{"compound": "CCc1cc(C(O)CNC(C)(C)C)ccc1SC (stereo not drawn) [compound 50]", "LD50": "150 mg/kg"}
{"compound": "CCSc1ccc(C(O)CNC(C)(C)C)cc1C (stereo not drawn) [Table III No. 73]", "LD50": "220 mg/kg"}
{"compound": "Cc1cc(C(O)CNC2CCCCC2)ccc1SC(C)C (stereo not drawn) [compound 130]", "LD50": "75 mg/kg"}

Query: Please look at this compound and report its LD50: CCCCSc1ccc(C(O)CN2CCC(C)CC2)cc1C (stereo not drawn) [compound 96]
Reply: 182 mg/kg

###

experiment: in vivo; details: mouse, ip
Listing of recorded LD50 by entry.
Just the number please, in mg/kg, no unit attached.

{"compound": "CCCCNCC(O)c1ccc(SC)c(Cl)c1 (centres unmarked)", "LD50, mg/kg": 110}
{"compound": "COc1ccc(Cc2nccc3cc(OC)c(OC)cc23)cc1OC [Papaverine, reference compound]", "LD50, mg/kg": 300}
{"compound": "CSc1ccc(C(O)C(C)NC(C)(C)C)cc1Cl (centres unmarked)", "LD50, mg/kg": 440}

Query: Please look at this compound and report its LD50: CCCCCCCCNCC(O)c1ccc(SC)c(CC)c1 (centres unmarked)
Reply: 75

Query: Please look at this compound and report its LD50: CCCCCSc1ccc(C(O)CNCCCC)cc1C (centres unmarked)
Reply: 75

###

Listing of recorded LD50 by entry.
test: in vivo; conditions: mouse, ip
Just the number please, in mg/kg, no unit attached.

{"molecule": "Cc1cc(C(O)CNC(C)C)ccc1SC(C)C (centres unmarked) [compound 127]", "LD50 / mg/kg": 182}
{"molecule": "Cc1cc(C(O)CN2CCCCC2)ccc1SCC(C)C (centres unmarked) [compound 86]", "LD50 / mg/kg": 110}
{"molecule": "Cc1cc(C(O)CNC(C)(C)C)ccc1SC(C)C (centres unmarked) [compound 125]", "LD50 / mg/kg": 150}
{"molecule": "CCC(C)NC(C)C(O)c1ccc(SC)c(Cl)c1 (centres unmarked) [Table III No. 8]", "LD50 / mg/kg": 150}

Query: Please look at this molecule and report its LD50: Cc1cc(C(O)CN2CCCCC2)ccc1SC(C)C (centres unmarked) [compound 124]
Reply: 150

Query: Please look at this molecule and report its LD50: CSc1ccc(C(O)CN2CCCCC2)cc1Cl (centres unmarked) [Table III No. 24]
Reply: 364

Query: Please look at this molecule and report its LD50: CCCCNCC(O)c1ccc(SCCCC)c(C)c1 (centres unmarked) [compound 97]
Reply: 110

Query: Please look at this molecule and report its LD50: CCCCNCC(O)c1ccc(SC(C)C)c(C)c1 (centres unmarked) [compound 129]
Reply: 46

Query: Please look at this molecule and report its LD50: CSc1ccc(C(O)CN)cc1C (centres unmarked) [compound 41]
Reply: 150

Query: Please look at this molecule and report its LD50: CCCCCSc1ccc(C(O)CNC(C)(C)C)cc1C (centres unmarked) [compound 102]
Reply: 91

Query: Please look at this molecule and report its LD50: CSc1ccc(C(O)CNC(C)C)cc1Cl (centres unmarked) [Table III No. 11]
Reply: 150

###

test: in vivo; conditions: mouse, ip
Consider the cut-off 200 mg/kg. If the recorded LD50 is strictly smaller, the label is true; if not, the label is false.

Answered cases to consult:
{"compound": "CCCCNCC(O)c1ccc(SCC)c(C)c1 (centres unmarked) [compound 80]", "assigned_class": "true"}
{"compound": "CCSc1ccc(C(O)CNCCc2ccccc2)cc1C (centres unmarked) [compound 81]", "assigned_class": "true"}
{"compound": "CSc1c(C)cc(C(O)CNC(C)C)cc1Cl (centres unmarked) [Table III No. 64]", "assigned_class": "true"}
{"compound": "CSc1c(C)cc(C(O)CN2CCCCC2)cc1Cl (centres unmarked) [compound 62]", "assigned_class": "false"}
{"compound": "CCSc1ccc(C(O)CNC2CCCCC2)cc1C (centres unmarked) [Table III No. 77]", "assigned_class": "true"}
{"compound": "Cc1cc(C(O)CN2CCOCC2)ccc1SC(C)C (centres unmarked) [compound 126]", "assigned_class": "false"}
{"compound": "CSc1ccc(C(O)CNC(C)Cc2ccccc2)cc1Cl (centres unmarked) [Table III No. 22]", "assigned_class": "true"}
{"compound": "CCSc1ccc(C(O)CNC(C)C)cc1C (centres unmarked) [compound 74]", "assigned_class": "true"}

Query: Consider the compound CSc1ccc(C(O)CNC(C)Cc2ccccc2)cc1C (centres unmarked) [compound 31] . Is its LD50 strictly less than 200 mg/kg?
Reply: true

Query: Consider the compound CSc1ccc(C(O)CNC(C)C)cc1C (centres unmarked) [Table III No. 1] . Is its LD50 strictly less than 200 mg/kg?
Reply: true

Query: Consider the compound CSc1ccc(C(O)C(C)N2CCC(C)CC2)cc1C (centres unmarked) [Table III No. 20] . Is its LD50 strictly less than 200 mg/kg?
Reply: true

###

tested on: mice; assay: Anti-arrhythmic activity in mice; assay type: in vivo; conditions: Mus musculus, po, 0.5 h, read-out: Anti-arrhythmic activity: number of mice protected in relation with the number of tested mice
Where a name gives a salt, the structure may show the parent alone.
observation_type: responders at 100 mg/kg (%)
Just the number please, in %, no unit attached.

The examples below pair each entry with its known result.
{"compound": "CCc1cc(C(O)CNC(C)(C)C)ccc1SC (centres unmarked)", "endpoint_unit": "%", "responders at 100 mg/kg": 50}
{"compound": "CSc1ccc(C(O)CNC2CCCCC2)cc1C (centres unmarked)", "endpoint_unit": "%", "responders at 100 mg/kg": 40}
{"compound": "CSc1ccc(C(O)C(C)NC(C)(C)C)cc1Cl (centres unmarked)", "endpoint_unit": "%", "responders at 100 mg/kg": 10}
{"compound": "CCc1cc(C(O)CNC(C)CC)ccc1SC (centres unmarked)", "endpoint_unit": "%", "responders at 100 mg/kg": 60}
{"compound": "CSc1ccc(C(O)CNC(C)C)cc1Cl (centres unmarked)", "endpoint_unit": "%", "responders at 100 mg/kg": 55}
{"compound": "COc1cc(C(O)CNC(C)(C)C)ccc1SC (centres unmarked) [Table IV No. 33, hydrochloride]", "endpoint_unit": "%", "responders at 100 mg/kg": 20}
{"compound": "CC(C)NCC(O)COc1cccc2ccccc12 (centres unmarked) [Propranolol, reference compound]", "endpoint_unit": "%", "responders at 100 mg/kg": 100}
{"compound": "CSc1ccc(C(O)CNC(C)C)cc1F (centres unmarked)", "endpoint_unit": "%", "responders at 100 mg/kg": 20}
{"compound": "CSc1ccc(C(O)CNC(C)(C)C)cc1Cl (centres unmarked)", "endpoint_unit": "%", "responders at 100 mg/kg": 10}
{"compound": "CCc1cc(C(O)CNC(C)C)ccc1SC (centres unmarked)", "endpoint_unit": "%", "responders at 100 mg/kg": 65}

Query: Please look at this compound and report its responders at 100 mg/kg: CCC(C)NCC(O)c1ccc(SC)c(C)c1 (centres unmarked)
Reply: 40

Query: Please look at this compound and report its responders at 100 mg/kg: CCCCSc1ccc(C(O)CNC(C)C(O)c2ccccc2)cc1C (centres unmarked)
Reply: 20

Query: Please look at this compound and report its responders at 100 mg/kg: CSc1ccc(C(O)CNC(C)C)cc1C (centres unmarked)
Reply: 60

Query: Please look at this compound and report its responders at 100 mg/kg: CCCCCCCCSc1ccc(C(O)CNC(C)CC)cc1C (centres unmarked)
Reply: 30
